measurementTarget: NaV1.1 (Homo sapiens (Human), UniProt P35498)
assayMethodText: Electrophysiological Assay (EP), patch voltage clamp, NaV1.1;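 also: sodium current block measured at ambient temperature, holding at fully inactivating potential, 20 ms repolarization to −150 mV before test pulse, versus 0.5% DMSO control currents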
Type: cell-based
recordedConditions: HEK-293 cells, whole-cell patch clamp
pIC50: −log10 of the molar value. Where a name gives a salt, the structure may show the parent alone.
readoutLabel: pIC50

Worked set:
| molecule | measurementTarget | obsValue |
| --- | --- | --- |
| C[C@H](Nc1cc(F)c(S(=O)(=O)Nc2ncco2)cc1Cl)c1cc(F)ccc1F [Example 287] | NaV1.1 (Homo sapiens (Human), UniProt P35498) | 5.00 |
| C[C@H](Oc1cc(F)c(S(=O)(=O)Nc2nccs2)cc1Cl)c1ccccc1 [Example 115] | NaV1.1 (Homo sapiens (Human), UniProt P35498) | 5.00 |
| C[C@H](Nc1cc(F)c(S(=O)(=O)Nc2cscn2)cc1Cl)c1cc(Cl)ccc1F [Example 5] | NaV1.1 (Homo sapiens (Human), UniProt P35498) | 5.00 |
| O=S(=O)(Nc1cscn1)c1cc(Cl)c(NC2(c3cc(F)ccc3F)CC2)cc1F [Example 225] | NaV1.1 (Homo sapiens (Human), UniProt P35498) | 5.00 |
| O=S(=O)(Nc1nccs1)c1ccc(N[C@@H](CO)c2ccccc2)c(Cl)c1 [Example 91] | NaV1.1 (Homo sapiens (Human), UniProt P35498) | 5.00 |

(P) Cc1c(NCc2c(F)cccc2CN2CC(F)C2)ccc(S(=O)(=O)Nc2cscn2)c1F [Example 130]
(Q) C[C@H](Nc1cc(F)c(S(=O)(=O)Nc2nccs2)cc1Cl)c1cc(F)ccc1F [Example 268]
(R) O=S(=O)(Nc1nccs1)c1cc(Cl)c(NC(CN2CCOCC2)c2ccccc2)cc1F (centres unmarked) [Example 74, 2,2,2-trifluoroacetate]
[in] Sort (3 molecules) by pIC50: min first. To answer, write out the labels according to the requested order.
[out] P, R, Q

(I) C[C@H](Oc1cc(F)c(S(=O)(=O)Nc2nccs2)cc1Cl)c1cccc(F)c1 [Example 114]
(II) O=S(=O)(Nc1nccs1)c1cc(Cl)c(NC2(c3ccccc3)CC2)cc1F [Example 43]
(III) CC[C@H](Nc1cc(F)c(S(=O)(=O)Nc2nccs2)cc1Cl)c1ccccc1 [Example 40]
[in] Sort (3 molecules) by pIC50: min first. To answer, write out the labels according to the requested order.
[out] I, II, III

(A) O=S(=O)(Nc1cscn1)c1c(F)cc(NCc2c(Cl)cccc2CN2CCC2)cc1F [Example 290, 2,2,2-trifluoroacetate]
(B) C[C@H](Nc1ccc(S(=O)(=O)Nc2nccs2)c(F)c1Cl)c1ccccc1F [Example 9]
(C) CC(Cc1cccnc1)Nc1cc(F)c(S(=O)(=O)Nc2nccs2)cc1Cl (centres unmarked) [Example 56]
[in] hey, can you rank those molecules up there by pIC50? biggest number first please To answer, write out the labels according to the requested order.
[out] C, B, A
(C: 5.85, B: 5.36, A: 5.00)

(1) O=S(=O)(Nc1cscn1)c1ccc(NCc2c(F)cccc2CN2CCC2)c(Cl)c1F [Example 192, formate]
(2) O=S(=O)(Nc1cccc(F)n1)c1cc(Cl)c(NCc2cccc3ccncc23)cc1F [Example 62]
(3) CC[C@H](Nc1cc(F)c(S(=O)(=O)Nc2cccc(F)n2)cc1Cl)c1ccccc1F [Example 316]
(4) C[C@H](Nc1cc(F)c(S(=O)(=O)Nc2ncc(F)s2)cc1Cl)c1ccccc1F [Example 266]
[in] hey, can you rank those molecules up there by pIC50? biggest number first please To answer, write out the labels according to the requested order.
[out] 4, 2, 3, 1

----------
The following are reported IC50 results, target or system NaV1.5 (Homo sapiens (Human)).
Where a name gives a salt, the structure may show the parent alone.
# number only, unit µM dropped from output

Worked set:
| compound | readoutLabel | obsValue |
| --- | --- | --- |
| C[C@H]1CCCN1Cc1cccc(F)c1CNc1cc(F)c(S(=O)(=O)Nc2cscn2)c(F)c1 [Example 158, formate] | IC50 | 30 |
| CN(Cc1cccc(F)c1CNc1cc(F)c(S(=O)(=O)Nc2cscn2)c(F)c1)CC1CC1 [Example 187, formate] | IC50 | 30 |
| CC1(C)CCN1Cc1c(F)cccc1CNc1cc(F)c(S(=O)(=O)Nc2cscn2)c(F)c1 [Example 198, formate] | IC50 | 30 |

As a next step, examine the compound that follows.
[in] Return reported IC50; argument: C[C@H](Nc1cc(F)c(S(=O)(=O)Nc2cscn2)cc1Cl)c1cc(CCN2CCC2)ccc1F [Example 257, formate]
[out] 8.39

----------
measurementTarget: NaV1.1 (Homo sapiens (Human), UniProt P35498)
assayMethodText: Sodium Influx Assay (Flux), NaV1.1;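 also: channels co-expressed with human β1 subunit and held open by modulators, cells exposed to compounds for one hour at room temperature, IC50 from percent inhibition of influx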
Type: cell-based
recordedConditions: Trex HEK293 cells, ANG2 dye, inactivated state
Where a name gives a salt, the structure may show the parent alone.
readoutLabel: IC50 (µM)

Worked set:
| compound | readoutLabel | readoutUnits | obsValue |
| --- | --- | --- | --- |
| C[C@H](Nc1cc(F)c(S(=O)(=O)Nc2cscn2)cc1Cl)c1cc(C#N)ccc1F | IC50 | µM | 30 |
| CN1CC2(C1)CN(Cc1cccc(Cl)c1CNc1cc(F)c(S(=O)(=O)Nc3cscn3)cc1Cl)C2 [Example 292, 2,2,2-trifluoroacetate] | IC50 | µM | 2.72 |
| O=S(=O)(Nc1cscn1)c1c(F)cc(NCc2c(F)cccc2CN2CC3(C2)CC(F)(F)C3)cc1F [Example 160, formate] | IC50 | µM | 6.51 |

(a) CC(C)C[C@H](Nc1cc(F)c(S(=O)(=O)Nc2nccs2)cc1Cl)c1ccccc1
(b) Cc1c(NCc2ccccc2CN2CCC2)cc(F)c(S(=O)(=O)Nc2ncns2)c1F
(c) O=S(=O)(Nc1nccs1)c1cc(Cl)c(NC2CCCc3ncccc32)cc1F (stereo not shown) [Example 98, formate]
(d) O=S(=O)(Nc1ccccn1)c1c(F)cc(NCc2c(F)cccc2CN2CCC2)cc1F
(e) CCC(Nc1cc(F)c(S(=O)(=O)Nc2cccc(F)n2)cc1Cl)c1ccccc1 (stereo not shown)
[in] hey, can you rank those compounds up there by IC50? biggest number first please To answer, write out the labels according to the requested order.
[out] d, e, b, a, c
(d: 30 µM, e: 16.6 µM, b: 2 µM, a: 1.11 µM, c: 0.303 µM)

(A) O=S(=O)(Nc1cscn1)c1cc(Cl)c(NCc2ccccc2CN2CCC2)cc1F [Example 19, 2,2,2-trifluoroacetate]
(B) CC[C@H](Nc1cc(F)c(S(=O)(=O)Nc2nccs2)cc1Br)c1ccccc1
(C) O=S(=O)(Nc1cscn1)c1cc(Cl)c(NCc2c(F)cccc2CN2CCOCC2)cc1F
[in] hey, can you rank those compounds up there by IC50? biggest number first please To answer, write out the labels according to the requested order.
[out] C, A, B

(1) Cc1cccc(CN2CCC2)c1CNc1cc(F)c(S(=O)(=O)Nc2cscn2)c(F)c1 [Example 285, formate]
(2) CC(C)C[C@@H](Nc1cc(F)c(S(=O)(=O)Nc2nccs2)cc1Cl)c1ccccc1
[in] Looking at recorded values for IC50, does 1 or 2 come in lower? Please indicate the selected item by its label.
[out] 2

(P) C[C@H](Oc1cc(F)c(S(=O)(=O)Nc2nccs2)cc1Cl)c1ccccc1Cl
(Q) O=S(=O)(Nc1nccs1)c1cc(Cl)c(N[C@H](CN2CCOCC2)c2ccccc2)cc1F [Example 75, 2,2,2-trifluoroacetate]
[in] Looking at recorded values for IC50, does P or Q come in lower? Please indicate the selected item by its label.
[out] P

(1) C[C@H](Oc1cc(F)c(S(=O)(=O)Nc2nccs2)cc1Cl)c1c(F)cccc1F
(2) O=S(=O)(Nc1cscn1)c1cc(F)c(NCc2c(F)cccc2CN2CCC2)cc1F
[in] Looking at recorded values for IC50, does 1 or 2 come in lower? Please indicate the selected item by its label.
[out] 1
(1: 5.72 µM, 2: 26 µM)

(a) CC[C@H](Nc1cc(F)c(S(=O)(=O)Nc2cscn2)cc1Cl)c1ccccc1Cl
(b) O=S(=O)(Nc1cscn1)c1cc(Cl)c(N[C@H](CN2CCCC2)c2ccccc2)cc1F
(c) O=S(=O)(Nc1ccncn1)c1cc(Cl)c(N[C@H](c2cc(Cl)ccc2F)C(F)(F)F)cc1F
(d) C[C@H](Nc1cc(F)c(S(=O)(=O)Nc2nccs2)cc1Cl)c1ccccc1F
[in] Sort (4 compounds) by IC50: min first. To answer, write out the labels according to the requested order.
[out] d, a, c, b

(A) C[C@H](Nc1cc(F)c(S(=O)(=O)Nc2cscn2)cc1Cl)c1cc(C2CC2)ccc1F
(B) O=S(=O)(Nc1cccc(F)n1)c1cc(Cl)c(NCc2cccc3ccncc23)cc1F
[in] Please tell me which of the two, A or B , has the higher reported IC50 value. Please indicate the selected item by its label.
[out] B
(B: 17.3 µM, A: 5.57 µM)

(P) Cc1c(NCc2c(F)cccc2CN2CCC2(C)C)ccc(S(=O)(=O)Nc2cscn2)c1F
(Q) Cc1cc(NS(=O)(=O)c2c(F)cc(NCc3c(F)ccc(F)c3CN3CCC3)cc2F)no1 [Example 216, 2,2,2-trifluoroacetate]
(R) CC[C@H](Nc1cc(F)c(S(=O)(=O)Nc2ccncn2)cc1Cl)c1ccccc1Cl [Example 277, 2,2,2-trifluoroacetate]
(S) O=S(=O)(Nc1nccs1)c1ccc(N[C@@H](CO)c2ccccc2)c(Cl)c1
[in] Sort (4 compounds) by IC50: min first. To answer, write out the labels according to the requested order.
[out] R, S, P, Q
(R: 3.77 µM, S: 10.7 µM, P: 18.1 µM, Q: 30 µM)
